# TEST DETAILS: Pharmacokinetic evaluation of Bupivacaine (BU) and Formula I (1-1) in Sprague-Dawley rats (blood and brain concentrations)
# Format: in vivo
# RECORDED CONDITIONS: rat; Brain; male Sprague-Dawley rats, intravenous, 3 mg/kg, n=5
ASSAY ENDPOINT: Cmax (ng/mL)
// note: answer is a bare numeric in ng/mL

Entry CCCCN1CCCCC1C(=O)Nc1c(C)cccc1C (stereo not shown) — recorded Cmax = 560

###

# TEST DETAILS: Pharmacokinetic evaluation of Bupivacaine (BU) and Formula I (1-1) in Sprague-Dawley rats (blood and brain concentrations)
# Assay type: in vivo
# RECORDED CONDITIONS: rat; Brain; male Sprague-Dawley rats, intravenous, 3 mg/kg, n=5
ASSAY ENDPOINT: AUC
Please provide the amount together with its unit, number first.

Entry CCCCN1CCCCC1C(=O)Nc1c(C)cccc1C (stereo not shown) — recorded AUC = 250 ng·h/mL

###

# TEST DETAILS: Pharmacokinetic evaluation of Bupivacaine (BU) and Formula I (1-1) in Sprague-Dawley rats (blood and brain concentrations)
# Format: in vivo
# RECORDED CONDITIONS: rat; Blood; male Sprague-Dawley rats, intravenous, 3 mg/kg, n=5
# Text: Male specific pathogen-free Sprague-Dawley rats weighing 300-350 g were obtained from the Laboratory. The animals had free access to food and water. […] All rats remained anaesthetized during the experimental period over which the Formula I (1-1) and BU concentrations in blood, brain and bile were monitored, and they were euthanized by overdose CO2 under the anaesthetic after the experimental endpoint. […]
ASSAY ENDPOINT: half-life (min)
// note: answer is a bare numeric in min

Entry CCCCN1CCCCC1C(=O)Nc1c(C)cccc1C (stereo not shown) — recorded half-life = 4

###

# TEST DETAILS: Pharmacokinetic evaluation of Bupivacaine (BU) and Formula I (1-1) in Sprague-Dawley rats (blood and brain concentrations)
# Format: in vivo
# RECORDED CONDITIONS: rat; Blood; male Sprague-Dawley rats, intravenous, 3 mg/kg, n=5
ASSAY ENDPOINT: AUC (ng·h/mL)
// note: answer is a bare numeric in ng·h/mL

Entry CCCCN1CCCCC1C(=O)Nc1c(C)cccc1C (stereo not shown) — recorded AUC = 1370
